Test system: IGROV-1
Measurement notes: NCI tumour cell line growth inhibition, 48 h
Active and inactive are the calls of the source. Cut-off read from the data, not from the text of the source: active = GI50 up to about 1.1 µM and inactive = higher.
Endpoint label: GI50

                                    compound  endpoint_label          test_result
 0  CCCC1CC(=O)NC(=O)C1C(=O)OC(C)(C)C (stereo unspecified)            GI50  > 100 µM (inactive)
 1     C(=N\c1ccc2c(c1)Cc1ccccc1-2)/c1ccccn1            GI50  > 100 µM (inactive)
 2  CC1(C)CC23C4COC(=O)C2CCC1C3CC4=O (stereo unspecified)            GI50   21.9 µM (inactive)
 3  COC1CCC(OS(C)(=O)=O)CO1 (stereo unspecified)            GI50  > 100 µM (inactive)
 4  O=C1N=C(Nc2ccccc2Cl)N/C1=C\c1ccc(Cl)cc1Cl            GI50   79.4 µM (inactive)
 5  [N-]=[N+]=NC1C(Cl)C(=O)NC(=O)N1[C@H]1C[C@H](O)[C@@H](CO)O1 (stereo partly specified)            GI50  > 100 µM (inactive)
 6  CN(C)CCCCN1c2ccccc2Sc2ccc(N=[N+]=[N-])cc21            GI50   3.08 µM (inactive)
 7               Cc1cc2ccccc2n1CC(=O)N1CCCC1            GI50  > 100 µM (inactive)
 8  COc1ccc2c(c1)CCC(CN1CCN(CCOC(c3ccc(F)cc3)c3ccc(F)cc3)CC1)=C2            GI50   28.1 µM (inactive)
 9  Nc1nc2c(ncn2C2OC(CO)C(O)C2O)c(=O)o1 (stereo unspecified)            GI50  > 100 µM (inactive)
10  N#C/C(=C1\OC(=N)C(c2ccc(Cl)cc2)=C1O)c1ccc(Cl)cc1            GI50   15.7 µM (inactive)

====

Tested on: Malme-3M
Measurement notes: NCI tumour cell line growth inhibition, 48 h
The source made the active and inactive calls. Rule as the data show it: active = GI50 up to about 1.1 µM and inactive = higher.
Labels: label 1 = active, label 0 = inactive

>>> print(df.to_string())
                                    compound  experimental_system    label
 0                C#CCOCn1cc(C)c(=O)[nH]c1=O             Malme-3M  label 0
 1  COc1ccccc1NCC(=O)Nn1c(C)nc2ccc(S(=O)(=O)Nc3ccccc3OC)cc2c1=O             Malme-3M  label 0
 2             O=c1cccc2n1C[C@H]1CNC[C@H]2C1             Malme-3M  label 0
 3  CC1(C)OC(CCO)CN1C(=O)OCc1ccccc1 (stereo unspecified)             Malme-3M  label 0
 4             S=C(NCc1ccccn1)N/N=C/c1ccccn1             Malme-3M  label 1
 5  Cc1ccccc1N(C)S(=O)(=O)c1ccccc1[N+](=O)[O-]             Malme-3M  label 0
 6  Clc1ccc2c(NCCNc3ccnc4cc(Cl)ccc34)ccnc2c1             Malme-3M  label 0
 7  [N-]=[N+]=NC1C(Cl)C(=O)NC(=O)N1[C@H]1C[C@H](O)[C@@H](CO)O1 (stereo partly specified)             Malme-3M  label 0
 8                          [O-][n+]1ccccc1S             Malme-3M  label 0
 9  Cn1c(=O)c2c(ncn2CCCCn2ccnc2[N+](=O)[O-])n(C)c1=O             Malme-3M  label 0
10  C=CC[C@H]1C[C@@]2(C)OC[C@H](C(C)C)N2C1=O             Malme-3M  label 0
